Reported MIC values follow for various compounds
System: Bacillus cereus ATCC 10702
method summary: Antibacterial MIC, standard serial dilution
Assay type: cell-based
condition: nutrient agar, 37° C., 17 hours, as free base
Your answer should be a plain number; it is taken to be in µg/mL.

Below are worked cases with known answers.
Asked: For the record CNC[C@@H]1CC[C@@H](N)[C@@H](O[C@H]2[C@H](O)[C@H](N(C)C(=O)CN)[C@@H](OC)C[C@H]2N)O1 , what value of MIC is listed for Bacillus cereus ATCC 10702?
Given back: 6.25

Asked: For the record CNCC1CCC(N)C(OC2C(N)CCC(N(C)C(=O)CN)C2O)O1 (centres unmarked) , what value of MIC is listed for Bacillus cereus ATCC 10702?
Given back: 1.56

Asked: For the record CNCC1CCC(N)C(OC2C(N)CC(O)C(N(C)C(=O)CN)C2O)O1 (centres unmarked) , what value of MIC is listed for Bacillus cereus ATCC 10702?
Given back: 1.56

Asked: For the record CNCC1CCC(N)C(OC2C(N)CCC(N(C)C(=O)CNC=N)C2O)O1.O.O.O.O.O=S(=O)(O)O.O=S(=O)(O)O (centres unmarked) , what value of MIC is listed for Bacillus cereus ATCC 10702?
Given back: 1.56

Shifting focus to the compound that follows.
Asked: For the record CNCC1CCC(N)C(OC2C(N)CC(O)C(N(C)C(=O)CNC=N)C2O)O1 (centres unmarked) , what value of MIC is listed for Bacillus cereus ATCC 10702?
Given back: 0.78

###

Tested on: Pseudomonas aeruginosa H11
method summary: Antibacterial MIC, standard serial dilution
Type: cell-based
condition: nutrient agar, 37° C., 17 hours, as free base
quantity measured: MIC (µg/mL)
Your answer should be a plain number; it is taken to be in µg/mL.

Below are worked cases with known answers.
Asked: Look up MIC for this compound: CNCC1CCC(N)C(OC2C(N)CCC(N(C)C(=O)CNC=N)C2O)O1.O.O.O.O.O=S(=O)(O)O.O=S(=O)(O)O (centres unmarked)
Given back: 50

Asked: Look up MIC for this compound: CNCC1CCC(N)C(OC2C(N)CCC(N(C)C(=O)CN)C2O)O1 (centres unmarked)
Given back: 25.0

Asked: Look up MIC for this compound: CNCC1CCC(N)C(OC2C(N)CC(O)C(N(C)C(=O)CN)C2O)O1 (centres unmarked)
Given back: 25

Asked: Look up MIC for this compound: CNCC1CCC(N)C(OC2C(N)CC(O)C(N(C)C(=O)CNC=N)C2O)O1 (centres unmarked)
Given back: 25

Shifting focus to the compound that follows.
Asked: Look up MIC for this compound: CNC[C@@H]1CC[C@@H](N)[C@@H](O[C@H]2[C@H](O)[C@H](N(C)C(=O)CN)[C@@H](OC)C[C@H]2N)O1
Given back: 100

###

Test system: Escherichia coli W677
method summary: Antibacterial MIC, standard serial dilution
Type: cell-based
condition: nutrient agar, 37° C., 17 hours, as free base
quantity measured: MIC (µg/mL)
Your answer should be a plain number; it is taken to be in µg/mL.

Below are worked cases with known answers.
Asked: Look up MIC for this compound: CNCC1CCC(N)C(OC2C(N)CC(O)C(N(C)C(=O)CNC=N)C2O)O1 (centres unmarked) [Demethyl formimidoyl ista B, 3-O-demethyl-2"-N-formimidoylistamycin B]
Given back: 0.39

Asked: Look up MIC for this compound: CNCC1CCC(N)C(OC2C(N)CCC(N(C)C(=O)CNC=N)C2O)O1.O.O.O.O.O=S(=O)(O)O.O=S(=O)(O)O (centres unmarked) [DBF, 3-demethoxy-2"-N-formimidoylistamycin B]
Given back: 0.39

Asked: Look up MIC for this compound: CNCC1CCC(N)C(OC2C(N)CC(O)C(N(C)C(=O)CN)C2O)O1 (centres unmarked) [Demethyl ista B, 3-O-demethylistamycin B]
Given back: 0.78

Asked: Look up MIC for this compound: CNC[C@@H]1CC[C@@H](N)[C@@H](O[C@H]2[C@H](O)[C@H](N(C)C(=O)CN)[C@@H](OC)C[C@H]2N)O1 [B, istamycin B]
Given back: 0.78

Continuing:
Asked: Look up MIC for this compound: CNCC1CCC(N)C(OC2C(N)CCC(N(C)C(=O)CN)C2O)O1 (centres unmarked) [DB, 3-demethoxyistamycin B]
Given back: 0.39
